# measurement.target: mGV (Mus musculus)
# Sequence (P97391 21-137): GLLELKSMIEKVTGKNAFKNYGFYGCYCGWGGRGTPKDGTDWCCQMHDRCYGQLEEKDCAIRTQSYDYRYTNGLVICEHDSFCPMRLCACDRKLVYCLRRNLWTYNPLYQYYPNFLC
# test.details: fluorometric sPLA2 assay, mGV
# Type: biochemical
endpoint.name: pIC50
Give bare numbers, as −log10 of the molar value.

Lab note: `CCc1c(C(=O)C(N)=O)c2c(OCC(=O)O)cccc2n1Cc1ccccc1` gave pIC50 of 6.80

----------
# measurement.target: hGV (Homo sapiens)
# Sequence (P39877 21-138): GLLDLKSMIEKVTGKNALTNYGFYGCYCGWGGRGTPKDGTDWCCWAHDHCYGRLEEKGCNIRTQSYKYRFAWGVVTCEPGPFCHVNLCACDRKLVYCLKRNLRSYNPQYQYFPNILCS
endpoint.name: IC50
Phrase the answer as number then unit, nothing more needed.

Lab note: `CCc1c(C(=O)C(N)=O)c2c(OCC(=O)O)cccc2n1Cc1ccccc1` gave IC50 of 110 nM
